MEASURED_METRIC: melting point (°C)

Here are 5 molecules together with their reported answers.
SMILES_NOTATION: CCOC(=O)c1cnn(C)c1S(=O)(=O)NC(=O)Nc1nc(OC)cc(OC)n1
melting point / °C: 182

SMILES_NOTATION: Clc1cc(Cl)c(-c2c(Cl)cccc2Cl)c(Cl)c1
melting point / °C: 85

SMILES_NOTATION: C(#CP(c1ccccc1)c1ccccc1)P(c1ccccc1)c1ccccc1
melting point / °C: 86

SMILES_NOTATION: Clc1nc2ccccc2[nH]1
melting point / °C: 200

SMILES_NOTATION: CCc1c(C)[nH]c2ccc(N(C)C)cc12
melting point / °C: 100

[a] COc1cccc(C(=O)C(=O)c2cccc(OC)c2)c1
[b] O=S(=O)(Cl)c1ccccc1C(F)(F)F
[c] c1ccc2c(c1)NC1(CCCC1)N2
[d] C=C(C)C(CC)CC
Sort low-to-high on melting point, please. Kindly provide the labels arranged according to the requested ordering.
d, b, a, c

----------
MEASURED_METRIC: melting point (°C)

Here are 3 molecules together with their reported answers.
MOLECULE: COc1cc2c(c(O)c1OC)C(C)N(C)CC2 (stereo unspecified)
READING_UNIT: °C
melting point: 112
//
MOLECULE: O=C(Nc1ccccc1)c1cc(Cl)ccc1O
READING_UNIT: °C
melting point: 211
//
MOLECULE: CC(C)C[N+](=O)[O-]
READING_UNIT: °C
melting point: -76.8

[A] S=C(Nc1cccc2ccccc12)Nc1cccc2ccccc12
[B] OCC1CCNCC1
# argmax over melting point for candidates A and B Kindly state the label of the option you pick.
A

[1] Nc1nc(-c2ccc(Cl)cc2)cs1
[2] CC(=O)OC(C(=O)Cl)c1ccccc1 (stereo unspecified)
# argmax over melting point for candidates 1 and 2 Kindly state the label of the option you pick.
1

[P] CCCCCCCC=CC(=O)O
[Q] Cc1nc(-c2ccc(C(=O)O)s2)cs1
# argmax over melting point for candidates P and Q Kindly state the label of the option you pick.
Q
(Q: 200 °C, P: 12 °C)

----------
MEASURED_METRIC: melting point (°C)

Here are 6 molecules together with their reported answers.
MOLECULE: CCN(CC)C(=O)c1cccc(C)c1
EXPERIMENTAL_RESULT: -45
--
MOLECULE: Nc1nncs1
EXPERIMENTAL_RESULT: 191
--
MOLECULE: O=C(O)CSc1ccccc1C(=O)O
EXPERIMENTAL_RESULT: 218
--
MOLECULE: CCOC(=O)C1=NN(c2ccccc2)C(=O)C1C(Br)C1(Br)C(=O)N(c2ccccc2)N=C1C(=O)OCC (stereo unspecified)
EXPERIMENTAL_RESULT: 201
--
MOLECULE: COC(=O)C(c1ccccc1)c1ccccc1
EXPERIMENTAL_RESULT: 60
--
MOLECULE: COc1ccsc1CN(C(=O)CCl)c1c(C)cccc1C
EXPERIMENTAL_RESULT: 73

[I] COc1cc(Cl)ccc1[N+](=O)[O-]
[II] NC(CN(Cc1ccccc1)c1ccccc1)=NO
[III] CC(C=CC=C(C)C=CC1=C(C)CC(O)CC1(C)C)=CC=CC=C(C)C=CC=C(C)C1C=C2C(C)(C)CC(O)CC2(C)O1 (stereo unspecified)
Sort low-to-high on melting point, please. Kindly provide the labels arranged according to the requested ordering.
I, II, III
